Reference for the values: patent US12552834

STUDY TARGET: T1, ENAH EVH1 domain (monomeric, wild type) (human, UniProt Q03173 1-111 (mouse entry))
T1 construct: ENAH residue numbers in the text count from the Met at position 25 of this entry; also called ENAH EVH1 WT; Mena EVH1 WT
T1 sequence (Q03173 other isoform, or with tags, fused parts or gaps limits assumed): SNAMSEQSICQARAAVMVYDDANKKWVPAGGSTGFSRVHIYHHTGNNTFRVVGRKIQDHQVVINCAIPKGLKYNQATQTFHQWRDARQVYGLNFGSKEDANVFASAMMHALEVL
ASSAY COMMENT: BLI, steady state; SUMO-peptide immobilised, EVH1 monomer in solution
pKd: −log10 of the molar value.

# BINDER, pKd
data = [
    ("NHSL1 Duplicated peptide (biotinylated (BAP tag), Engineered variant, tested as a SUMO fusion) peptide: MAGGLNDIFEAQKIEWHEDTGGSSHHHHHHGSGSGSDSEVNQEAKPEVKPEVKPETHINLKVSDGSSEIFFKIKKTTPLRRLMEAFAKRQGKEMDSLTFLYDGIEIQADQTPEDLDMEDNDIIEAHREQIGGSGSGADRSPFLPPPPPVTDCSQGSPLPHSPVPVTDCSQGSPLPHSPVFPPPPPEAL", 4.74),
    ("LPP FP4 2 peptide (biotinylated (BAP tag), Truncation of the LPP 36mer that keeps the second FP4 motif, tested as a SUMO fusion) peptide: MAGGLNDIFEAQKIEWHEDTGGSSHHHHHHGSGSGSDSEVNQEAKPEVKPEVKPETHINLKVSDGSSEIFFKIKKTTPLRRLMEAFAKRQGKEMDSLTFLYDGIEIQADQTPEDLDMEDNDIIEAHREQIGGSGSGPPLDDSSALPSISGNFPPPPPL", 4.55),
    ("Minimum General peptide (biotinylated (BAP tag), Engineered peptide, tested as a SUMO fusion) peptide: MAGGLNDIFEAQKIEWHEDTGGSSHHHHHHGSGSGSDSEVNQEAKPEVKPEVKPETHINLKVSDGSSEIFFKIKKTTPLRRLMEAFAKRQGKEMDSLTFLYDGIEIQADQTPEDLDMEDNDIIEAHREQIGGSGSGDFLPPPPGGGGGGSGSGGGSGSFPPPPGG", 4.03),
]
